Biological target: T1, human TIGIT protein (human, UniProt Q495A1 22-141, limits assumed)
T1 construct: Recombinant protein (Genentech) used in ELISA screening and as SPR analyte; also called TIGIT antigen
T1 sequence: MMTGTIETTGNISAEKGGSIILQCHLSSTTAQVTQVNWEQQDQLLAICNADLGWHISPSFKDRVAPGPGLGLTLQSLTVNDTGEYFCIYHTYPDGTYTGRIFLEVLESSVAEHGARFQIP
Assay: SPR, captured mAb
Reported koff values follow for various binders
Please state the figure in s⁻¹; there is no need to write the unit.

Problem: Which koff is reported for this binder? 7.4A3.C96S.Q1E (antibody, V domains shown, also called 7.4A3.Q1E.C96S) VH: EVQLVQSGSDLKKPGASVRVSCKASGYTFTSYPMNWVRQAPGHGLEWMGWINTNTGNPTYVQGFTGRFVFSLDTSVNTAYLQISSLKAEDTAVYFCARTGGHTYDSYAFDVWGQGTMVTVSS VL: DIQLTQSPTFLSASVGDRVTITCRASQVISSSLAWYQQNPGKAPKLLIYAASTLQSGVPSRFSGSGSGTEFTLTISSLQPEDFVTYYCQHLHGYPSNFGQGTKVEIK
Result: 0.000856

Problem: Which koff is reported for this binder? 4.1A4 (antibody, V domains shown, OMT rat-derived human antibody; also called 4.1A4.Q1.C96) VH: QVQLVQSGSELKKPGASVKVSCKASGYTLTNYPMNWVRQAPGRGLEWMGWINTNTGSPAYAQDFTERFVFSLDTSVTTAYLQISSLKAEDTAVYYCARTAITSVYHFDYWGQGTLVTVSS VL: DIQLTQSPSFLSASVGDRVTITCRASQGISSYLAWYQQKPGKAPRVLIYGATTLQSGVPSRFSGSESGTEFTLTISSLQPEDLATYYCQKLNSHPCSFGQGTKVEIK
Result: 0.00122

Problem: Which koff is reported for this binder? 7.4A3 (antibody, V domains shown, OMT rat-derived human antibody; also called 7.4A3.Q1.C96) VH: QVQLVQSGSDLKKPGASVRVSCKASGYTFTSYPMNWVRQAPGHGLEWMGWINTNTGNPTYVQGFTGRFVFSLDTSVNTAYLQISSLKAEDTAVYFCARTGGHTYDSYAFDVWGQGTMVTVSS VL: DIQLTQSPTFLSASVGDRVTITCRASQVISSSLAWYQQNPGKAPKLLIYAASTLQSGVPSRFSGSGSGTEFTLTISSLQPEDFVTYYCQHLHGYPCNFGQGTKVEIK
Result: 0.00104

Pending binder:
Problem: Which koff is reported for this binder? 7.4A3.C96Y.Q1E (antibody, V domains shown, No entry is tied to this variant by name; built from 7.4A3 with the two named changes (Q1E in the heavy chain, C96Y in HVR-L3); also called 7.4A3.Q1E.C96Y) VH: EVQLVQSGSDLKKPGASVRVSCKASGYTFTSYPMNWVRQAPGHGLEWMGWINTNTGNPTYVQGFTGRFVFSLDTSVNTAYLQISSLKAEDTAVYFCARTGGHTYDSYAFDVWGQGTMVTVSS VL: DIQLTQSPTFLSASVGDRVTITCRASQVISSSLAWYQQNPGKAPKLLIYAASTLQSGVPSRFSGSGSGTEFTLTISSLQPEDFVTYYCQHLHGYPYNFGQGTKVEIK
Result: 0.0365
